pKi: −log10 of the molar value.
pKi values for Sodium-dependent dopamine transporter (Rattus norvegicus, UniProt P23977), compiled from several publications.
experimentalReadout: pKi

Below: 2 compounds and their reported pKi.
C[C@@H]1CN(CCCn2c3ccccc3c3cc(N)ccc32)C[C@@H](C)N1 ... 5.62
CCOc1ccccc1O[C@@H](c1ccc(I)cc1)[C@@H]1CNCCO1 ... 5.84

A = C[C@]12N[C@H](Cc3ccc(N=C=S)cc31)c1ccccc12 (stereo in doubt; (+)-8a)
B = Fc1ccc(N(CCCN2CCN(CCCc3ccccc3)CC2)c2ccc(F)cc2)cc1
C = Oc1ccc(CN[C@H]2CO[C@H](C(c3ccccc3)c3ccccc3)C2)cc1
# desc sort on pKi across 3 compounds Give your ranking as a list of the labels in the requested order.
B, C, A
